experiment: Acute toxicity in the rat (LD50, Probits method); conditions: in vivo, po, male
measured quantity: LD50 at 192 h (mg/kg)
Dear colleague, please return just the value in mg/kg, with no unit written.

Reported LD50 at 192 h for O=C1C(CC[S+]([O-])c2ccccc2)C(=O)N(c2ccccc2)N1c1ccccc1 (centres unmarked) : what is it?
348

---

For each entry below, report its LD50 at 192 h value.
assay: Acute toxicity in the mouse (LD50, Probits method); conditions: in vivo, ip, intraperitoneal route, female
Dear colleague, please return just the value in mg/kg, with no unit written.

Reported LD50 at 192 h for O=C(OCC1(CC[S+]([O-])c2ccccc2)C(=O)N(c2ccccc2)N(c2ccccc2)C1=O)c1cccnc1 (centres unmarked) : what is it?
3250

Okay, and O=C1C(CC[S+]([O-])c2ccccc2)C(=O)N(c2ccccc2)N1c1ccccc1 (centres unmarked) ?
159
